Attribution: patent US20150166606A1

- assayed target: Activated human plasma kallikrein (Enzyme Research Laboratories, HPKa 1303) (human, UniProt P03952 20-638)
- Sequence (P03952 20-638 limits assumed): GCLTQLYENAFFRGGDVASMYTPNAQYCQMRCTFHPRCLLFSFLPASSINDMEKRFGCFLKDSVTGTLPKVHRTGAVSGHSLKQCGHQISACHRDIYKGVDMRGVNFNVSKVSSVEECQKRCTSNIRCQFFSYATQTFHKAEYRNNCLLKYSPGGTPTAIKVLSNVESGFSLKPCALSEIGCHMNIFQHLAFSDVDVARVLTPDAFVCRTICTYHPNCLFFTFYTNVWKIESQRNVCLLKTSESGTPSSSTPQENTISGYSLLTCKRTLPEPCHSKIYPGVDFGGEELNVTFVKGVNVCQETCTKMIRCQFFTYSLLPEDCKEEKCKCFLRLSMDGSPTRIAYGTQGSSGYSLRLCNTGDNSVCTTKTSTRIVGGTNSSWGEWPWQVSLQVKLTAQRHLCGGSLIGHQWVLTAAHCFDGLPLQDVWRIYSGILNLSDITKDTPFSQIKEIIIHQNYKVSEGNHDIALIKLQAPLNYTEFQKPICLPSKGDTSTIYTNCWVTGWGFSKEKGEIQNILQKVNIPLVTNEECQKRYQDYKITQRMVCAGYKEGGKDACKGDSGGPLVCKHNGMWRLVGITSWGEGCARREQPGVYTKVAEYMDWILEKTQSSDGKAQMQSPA
- procedure text: cell-based or functional assay
Bridge positions count the residues as written; N and C are the ends. Square brackets hold non-standard residues; d marks the D form. Ends that are not written are not given here. mXylyl = xylyl linker from dibromoxylene joining the two cysteines; des‑NH2 = missing amino-terminal amine group; Phg = N[C@H](C(=O)O)c1ccccc1; Tle = CC(C)(C)[C@H](N)C(=O)O; Nva = CCC[C@H](N)C(=O)O; Ac3c = NC1(C(=O)O)CC1
Label T when Avg. IC50 is at or above 1000 nM; otherwise label F.

binder	discrete label
{des‑NH2}-CICRV-NH2 (linker 1-3 via mXylyl; not fully specified (residue 1); printed as [mXylyl(1,3)](des-NH2)C-ICRV-NH2) [R2049]	T
[Nva]CESICRF-NH2 (linker 2-6 via mXylyl) [R2035]	T
MCESICRV-NH2 (cysteine pairing not given here) [R2007]	T
MCETICRVLKYSD-NH2 (linker 2-6 via mXylyl) [R2005]	F
{des‑NH2}-C[Ac3c]A[Phg]CR[Tle]-NH2 (linker 1-5 via mXylyl) [R2093]	F
